assay_comment: clinical
condition_details: human, in vivo, po
experimental_endpoint: half-life

Req: Request the reported half-life associated with C=CCn1c(=O)c2cnc(Nc3ccc(N4CCN(C)CC4)cc3)nc2n1-c1cccc(C(C)(C)O)n1 [adavosertib, Adavosertib]
Resp: 5 to 12 h

Data origin, for the record: paper PMC10289903
